tested on: intestinal alkaline phosphatase [Mus musculus]; experiment: mouse intestinal phosphatase enzyme activation – biochemical, luminescence, single concentration, confirmation (AID 434970); conditions: purified mouse IAP, CDP-Star luminescence, 30 min, at 10 µM; measured here: IAP activation factor, stronger effect = higher value
Among all 11,000 compounds or so, about 310 (2.8%) were called active. The list comes from a sample in which actives are over-represented; it also holds close analogues and randomly drawn compounds.
Parameter activation factor: see the listing below.

compound	activation factor
CCC1CCCCN1CCCNC(=O)c1ccc2c(=O)n(Cc3ccc(OC)cc3)c(=O)[nH]c2c1 (stereo unspecified)	0.925
COc1ccc(OC)c(NC2=NC3(CCCCC3)N=C(N)N2)c1	1.17
Cc1ccc(NC(=O)c2ncn(CC(=O)NCC(C)c3ccccc3)n2)cc1C (stereo unspecified)	0.995
COCCNC(=O)CN(C)S(=O)(=O)c1ccc2c(c1)OCCO2	0.928
CCN(CC)S(=O)(=O)c1cccc(-c2nnc(SCC(=O)c3cc(C)n(C)c3C)o2)c1	0.772
Cc1cc(C)cc(NC2=NC3(CCCCC3)N=C(N)N2)c1	3.22
COc1ccc(OC)c(NC2=NC3(CCCC3)N=C(N)N2)c1	1.22
Cc1cccc(-c2noc(CCC(=O)N3CCN(c4cc(C)ccc4C)CC3)n2)c1	0.938
CCOc1ccc(NC(=O)CC(c2ccccc2)c2ccc(F)cc2)cc1 (stereo unspecified)	1.44
CC1(C)N=C(N)NC(Nc2ccccc2)=N1	1.04
Cc1cc(C)nc(-n2nc(C)c3c(C(F)(F)F)cc(=O)[nH]c32)n1	1.03

---

test system: intestinal alkaline phosphatase [Mus musculus]; test: mouse intestinal phosphatase enzyme activation – biochemical, luminescence, single concentration, confirmation (AID 434970); conditions: purified mouse IAP, CDP-Star luminescence, 30 min, at 10 µM; stronger effect = lower value
The campaign covered roughly 11,000 compounds. About 310 (2.8%) were called active. What follows is part of a selection rich in actives, with near analogues and random picks from the rest.

compound	tested-on	activity change, negative = activation (%)
CCOC(=O)C1=CN(Cc2cccc(F)c2)S(=O)(=O)NC1c1ccc(F)c(Cl)c1 (configuration not stated)	intestinal alkaline phosphatase [Mus musculus]	11.9
Cc1cc(C)cc(NC(=O)Nc2ccc(N3CCCCC3)cc2)c1	intestinal alkaline phosphatase [Mus musculus]	-15.9
Cc1cccc(NC(=O)CC2NC3CCCCC3NC2=O)c1 (configuration not stated)	intestinal alkaline phosphatase [Mus musculus]	2.55
O=C(O)C1C2C=CC(O2)C1C(=O)NCCC1=CCCCC1 (configuration not stated)	intestinal alkaline phosphatase [Mus musculus]	-12.2
O=C(NCCc1ccccc1)c1nc2nc(-c3cccs3)cc(C(F)(F)F)n2n1	intestinal alkaline phosphatase [Mus musculus]	4.4
CCN(Cc1cc2ccccc2[nH]c1=O)S(=O)(=O)c1ccccc1	intestinal alkaline phosphatase [Mus musculus]	-1.85
Cc1cccc(NC(=O)NC2CCCCCCC2)c1	intestinal alkaline phosphatase [Mus musculus]	-145
Cc1ccc(NC(=S)NC2CCCCC2)cc1S(=O)(=O)N(C)C	intestinal alkaline phosphatase [Mus musculus]	-29.9
CCCCNc1nc2c(c(=O)n(C)c(=O)n2C)n1Cc1cccc(OC)c1	intestinal alkaline phosphatase [Mus musculus]	-4.2
Cc1cc(Cl)cc(C)c1OCC(=O)O	intestinal alkaline phosphatase [Mus musculus]	-5.8
Cc1cc(C)cc(NC(=O)NC2CCCCCCC2)c1	intestinal alkaline phosphatase [Mus musculus]	-237
C/C(=N\OCC(=O)N/N=C/c1ccccc1O)c1cccs1	intestinal alkaline phosphatase [Mus musculus]	-1.25
